FYI, the data here is from patent US12599136B2.

tested on: Amaranthus retroflexus; experiment: Pre-emergence herbicidal action against AMARE; assay type: in vivo; conditions: 20 g/ha; visual score after 3 weeks vs untreated controls
endpoint: Pre-emergence action against AMARE (%)

- sample smiles: "CCN(C)C(=O)c1c(C(F)F)ccc(C(=O)Nc2nnnn2CC)c1Cl"
  target: "Amaranthus retroflexus"
  endpoint: "Pre-emergence action against AMARE"
  output unit: "%"
  val: 100
- sample smiles: "Cc1c(C(=O)Nc2nnnn2C)ccc(C(F)(F)F)c1C(=O)N(C)C1CC1"
  target: "Amaranthus retroflexus"
  endpoint: "Pre-emergence action against AMARE"
  output unit: "%"
  val: 100
- sample smiles: "CCn1nnnc1NC(=O)c1ccc(C(F)(F)F)c(C(=O)N(C)C2CC2)c1C"
  target: "Amaranthus retroflexus"
  endpoint: "Pre-emergence action against AMARE"
  output unit: "%"
  val: 100
- sample smiles: "Cc1c(C(=O)Nc2nnnn2C)ccc(C(F)(F)F)c1C(=O)N(C1CC1)C1CC1"
  target: "Amaranthus retroflexus"
  endpoint: "Pre-emergence action against AMARE"
  output unit: "%"
  val: 100
- sample smiles: "Cc1c(C(=O)Nc2nnnn2C)ccc(C(F)(F)F)c1C(=O)N(C)CC(F)F"
  target: "Amaranthus retroflexus"
  endpoint: "Pre-emergence action against AMARE"
  output unit: "%"
  val: 100
- sample smiles: "CCN(CC)C(=O)c1c(Br)ccc(C(=O)Nc2nnnn2C)c1Cl"
  target: "Amaranthus retroflexus"
  endpoint: "Pre-emergence action against AMARE"
  output unit: "%"
  val: 90
- sample smiles: "CCN(CC)C(=O)c1c(C(F)F)ccc(C(=O)Nc2nnnn2CC)c1Cl"
  target: "Amaranthus retroflexus"
  endpoint: "Pre-emergence action against AMARE"
  output unit: "%"
  val: 100
- sample smiles: "CN(C(=O)c1c(C(F)F)ccc(C(=O)Nc2nnnn2C)c1Cl)C1CC1"
  target: "Amaranthus retroflexus"
  endpoint: "Pre-emergence action against AMARE"
  output unit: "%"
  val: 100
- sample smiles: "CCn1nnnc1NC(=O)c1ccc(C(F)F)c(C(=O)N(C)CC(F)F)c1Cl"
  target: "Amaranthus retroflexus"
  endpoint: "Pre-emergence action against AMARE"
  output unit: "%"
  val: 100
- sample smiles: "CCN(C(=O)c1c(C(F)(F)F)ccc(C(=O)Nc2nnnn2C)c1C)C1CC1"
  target: "Amaranthus retroflexus"
  endpoint: "Pre-emergence action against AMARE"
  output unit: "%"
  val: 90
- sample smiles: "Cc1ccccc1N(C)C(=O)c1c(Cl)ccc(C(=O)Nc2nnnn2C)c1Cl"
  target: "Amaranthus retroflexus"
  endpoint: "Pre-emergence action against AMARE"
  output unit: "%"
  val: 90
- sample smiles: "CCCn1nnnc1NC(=O)c1ccc(C(F)(F)F)c(C(=O)N(C)C)c1Cl"
  target: "Amaranthus retroflexus"
  endpoint: "Pre-emergence action against AMARE"
  output unit: "%"
  val: 100
- sample smiles: "CCn1nnnc1NC(=O)c1ccc(C(F)F)c(C(=O)N(C)C)c1C"
  target: "Amaranthus retroflexus"
  endpoint: "Pre-emergence action against AMARE"
  output unit: "%"
  val: 90
- sample smiles: "CCN(CC)C(=O)c1c(C(F)F)ccc(C(=O)Nc2nnnn2C)c1Cl"
  target: "Amaranthus retroflexus"
  endpoint: "Pre-emergence action against AMARE"
  output unit: "%"
  val: 100
- sample smiles: "CCCn1nnnc1NC(=O)c1ccc(C(F)(F)F)c(C(=O)N2CCCC2)c1Cl"
  target: "Amaranthus retroflexus"
  endpoint: "Pre-emergence action against AMARE"
  output unit: "%"
  val: 100
- sample smiles: "CCn1nnnc1NC(=O)c1ccc(C(F)(F)F)c(C(=O)N(C)CC2CC2)c1Cl"
  target: "Amaranthus retroflexus"
  endpoint: "Pre-emergence action against AMARE"
  output unit: "%"
  val: 90
- sample smiles: "CCN(CC)C(=O)c1c(C(F)F)ccc(C(=O)Nc2nnnn2CC)c1C"
  target: "Amaranthus retroflexus"
  endpoint: "Pre-emergence action against AMARE"
  output unit: "%"
  val: 80
